system: BD1 bromodomains of BRDs 2 and 3
measurement.description: TR-FRET competition assay
setup.conditions: BD1 of BRDs 2 and 3, text summary citing Table 3
property: Kd

{"molecule": "COc1cc(OC)c2c(=O)[nH]c(-c3cc(C)c(OCCO)c(C)c3)nc2c1 [RVX-208]", "property": "Kd", "result": "2000 to 3000 nM"}

Data origin, for the record: paper PMC3877016
